property: melting point (°C)
One number for each entry, in °C.

- molecule: "COc1ccc(CN2C(=O)C(C)(c3cc(NS(C)(=O)=O)ccc3Cl)c3cc(Cl)ccc32)c(OC)c1 (stereo not given)"
  unit abbreviation: "°C"
  melting point: 210
- molecule: "COC(=O)C(C)(C)OCc1cc2nc(Cl)ccc2n1S(=O)(=O)c1ccc2c(c1)OCO2"
  unit abbreviation: "°C"
  melting point: 131

Hi there! I need melting point for each item below, if you can.
1. COc1cc(-c2csc(C3CC3)n2)cc2oc(=O)c(C)c(C)c12
2. CCC1(COc2ccc(C(=O)O)cc2)COC1

Ans.
151
128
